Source: patent US20260109707A1

# Test system: T-Rex 293 cell line SC3 cells lacking increased expression of androgen receptor protein
# Assay procedure: Cellular growth inhibition assay, T-Rex 293 SC3 cells without doxycycline (CellTiter-Glo, 72 hours)
# Format: cell-based
# Details: 72 h, T-Rex 293 cell line SC3 cells not exposed to doxycycline (lacking increased androgen receptor expression)
# Procedure: The following types of cells were prepared for this experiment: (i) a T-Rex 293 cell line having increased expression of androgen receptor protein due to exposure to doxycycline and (ii) a T-Rex 293 cell line lacking increased expression of androgen receptor protein. Ability of the test compounds to inhibit proliferation of the foregoing cell types was evaluated according to the procedures set forth below. […] Data was normalized using zero luminescence for baseline. […]
Observable: GI50

[[record]]
structure_smiles = "Cc1sc2c(c1C)C(c1ccc(CNC(=O)Cc3ccc(C(=O)N[C@H]4CC[C@H](Oc5ccc(C#N)c(Cl)c5)CC4)nn3)cc1)=N[C@@H](Cc1ncco1)c1nnc(C)n1-2"
recorded_result = "> 3000 nM"

[[record]]
structure_smiles = "Cc1sc2c(c1C)C(c1ccc(N3C[C@@H]4CN(c5ccc(C(=O)N[C@H]6CC[C@H](Oc7ccc(C#N)c(Cl)c7)CC6)nn5)C[C@@H]4C3)cc1F)=N[C@@H](C)c1nnc(C)n1-2"
recorded_result = "< 500 nM"

[[record]]
structure_smiles = "Cc1sc2c(c1C)C(c1ccc(OC3CC4(CCN(c5ccc(C(=O)N[C@H]6CC[C@H](Oc7ccc(C#N)c(Cl)c7)CC6)nn5)CC4)C3)cc1)=N[C@@H](Cc1ncco1)c1nnc(C)n1-2"
recorded_result = "< 500 nM"

